B1: Transitional endoplasmic reticulum ATPase, residues 26 to 106; numbered along this chain, P55072 (parent)
chain: LIVDEAINEDNSVVSLSQPKMDELQLFRGDTVLLKGKKRREAVCIVLSDDTCSDEKIRMNRVVRNNLRVRLGDVISIQPCP

Variants of: B1
Experiment: abundance fitness (aPCA) (normalised: wild type 0, dead -1); higher = more abundant; growth selection in yeast, the domain comes from the species named
Conditions: Homo sapiens
measured_metric: abundance fitness
Give bare numbers.

Below, each entry is followed by its recorded abundance fitness result.
> print(dat)
   change    measured.metric  endpoint.value
1    L26S  abundance fitness          -0.838
2    E23P  abundance fitness           -1.16
3     L1C  abundance fitness          -0.117
4    K35D  abundance fitness          -0.455
5    G29N  abundance fitness           -0.03

Here is the next item to consider.
-- ask Endpoint output: abundance fitness of `E9H` . Value?
-- reply -0.109
